This collection of values is drawn from ChEMBL document CHEMBL5727076.

Target: TGF-beta receptor type-1 (Homo sapiens, UniProt P36897, T204D)
Sequence (P36897 34-503 T204D limits assumed): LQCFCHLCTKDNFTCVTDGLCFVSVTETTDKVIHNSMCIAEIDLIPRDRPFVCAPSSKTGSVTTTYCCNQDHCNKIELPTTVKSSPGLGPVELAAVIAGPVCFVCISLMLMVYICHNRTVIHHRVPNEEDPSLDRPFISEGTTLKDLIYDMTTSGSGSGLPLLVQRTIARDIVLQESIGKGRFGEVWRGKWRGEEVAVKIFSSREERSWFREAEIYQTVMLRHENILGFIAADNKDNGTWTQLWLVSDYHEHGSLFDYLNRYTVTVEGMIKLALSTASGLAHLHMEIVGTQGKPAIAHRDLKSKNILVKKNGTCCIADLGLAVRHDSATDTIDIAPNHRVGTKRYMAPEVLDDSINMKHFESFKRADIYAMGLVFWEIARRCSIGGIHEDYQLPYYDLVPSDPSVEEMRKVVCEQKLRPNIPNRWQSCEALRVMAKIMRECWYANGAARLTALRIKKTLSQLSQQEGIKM
Test: The reaction is incubated for 1 hour at room temperature and the HTRF signal was measured on an Envision plate reader (Ex: 340 nm; Em: 520 nm/495 nm). Inhibition data were calculated by comparison to no enzyme control reactions for 100% inhibition and vehicle-only reactions for 0% inhibition. The final concentration of reagents in the assay are 1 nM HIS-TGFβR1 T204D or HIS-TGFβR2 WT, 0.2 nM anti-HIS detection antibody, labeled small molecule probe (at Kd) and 0.5% DMSO. Dose response curves were generated to determine the concentration required inhibiting 50% of kinase activity (IC50). Compounds were dissolved at 10 mM in dimethylsulfoxide (DMSO) and evaluated at eleven concentrations.
Measured metric: IC50 (nM)

Cc1cccc(-c2ncccc2-c2ccc3ncc(C(=O)O)n3c2)n1    4
CNC(=O)c1cnc2ccc(-c3cccnc3-c3cccc(C)n3)cn12    2

(I) N#Cc1cnc2ccc(-c3cccnc3-c3cccc(C(F)(F)F)n3)cn12
(II) Cc1cccc(-c2ncccc2-c2ccn3ncc(C(N)=O)c3n2)n1
Lower value for measured IC50? Options: I , II Mark your selection by writing its label.
II
(II: 6 nM, I: 11 nM)
